test system: SR leukemia; test: NCI-60 one-dose screen, 48 h; conditions: 10 µM unless noted
This is part of a sample that, as a whole, favours compounds with a hit. Of some 83,000 tested, about 20% had one in any assay. The source made the active and inactive calls. The calls were made as follows: active = growth percent below 10; inactive = the rest.
Use one of these outcomes when replying: active, inactive

Use these answered entries as a reference point.
[
  {
    "molecule": "Oc1cc(O)c2c(=S)cc(-c3ccc(Cl)cc3)oc2c1",
    "testedTarget": "SR leukemia",
    "groupLabel": "inactive"
  },
  {
    "molecule": "O=C1C2CC=CCC2C(=O)N1CNc1ccc(Cl)cc1 (configuration not stated)",
    "testedTarget": "SR leukemia",
    "groupLabel": "inactive"
  },
  {
    "molecule": "COc1ccc(C2CC(=O)Nc3c2c(C)nn3-c2nc3ccccc3[nH]2)cc1 (configuration not stated)",
    "testedTarget": "SR leukemia",
    "groupLabel": "active"
  },
  {
    "molecule": "CCN(CC)CC#CCOC(=O)[C@]1(C)CCC[C@@]2(C)[C@H]1CC(C=O)=C1C=C(C(C)C)CC[C@@H]12",
    "testedTarget": "SR leukemia",
    "groupLabel": "inactive"
  },
  {
    "molecule": "C/C(Cc1ccc(Cl)cc1)=C(\\c1ccc(OCCN2CCCCCC2)cc1)c1ccc(OC(=O)C2CCCCC2)cc1",
    "testedTarget": "SR leukemia",
    "groupLabel": "active"
  },
  {
    "molecule": "Cc1nc2sc(C(=O)Nc3cccc4c3OCCO4)c(N)c2cc1C(C)O (configuration not stated)",
    "testedTarget": "SR leukemia",
    "groupLabel": "inactive"
  }
]

Prompt: Please share the test call associated with CCCCCCCCCCCCCCCC(=O)OCC1OC(n2cnc3c(=S)nc(N)[nH]c32)C(OC(=O)CCCCCCCCCCCCCCC)C1OC(=O)CCCCCCCCCCCCCCC (configuration not stated) .
Response: inactive

Ref: PubChem BioAssay (NCI)
